Target: 5-HT2B receptor (Homo sapiens, UniProt P41595)
Construct: host or cells: CHO-K1
Sequence (P41595 whole entry): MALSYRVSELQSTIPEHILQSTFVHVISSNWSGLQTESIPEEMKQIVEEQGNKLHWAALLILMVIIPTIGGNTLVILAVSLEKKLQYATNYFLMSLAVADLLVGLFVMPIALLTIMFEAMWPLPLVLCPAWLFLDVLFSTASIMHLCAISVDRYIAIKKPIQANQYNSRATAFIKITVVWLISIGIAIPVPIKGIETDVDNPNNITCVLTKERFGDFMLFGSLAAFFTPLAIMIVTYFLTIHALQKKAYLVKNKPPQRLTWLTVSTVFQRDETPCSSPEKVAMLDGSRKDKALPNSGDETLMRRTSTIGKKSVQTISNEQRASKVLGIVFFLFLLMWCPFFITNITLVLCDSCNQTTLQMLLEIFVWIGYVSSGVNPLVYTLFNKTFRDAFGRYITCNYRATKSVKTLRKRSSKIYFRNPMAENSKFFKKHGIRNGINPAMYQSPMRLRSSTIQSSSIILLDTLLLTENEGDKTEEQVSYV
Test: 5-HT2B receptor binding, 3H-LSD ligand displacement assay
Conditions: 0.001 uM compound
Rule: inhibition at 0.001 µM under 20% gives false (0), otherwise true (1).

*Q* Tell me whether inhibition at 0.001 µM is at least 20% here: CC1CN(C(=N)NCc2ccc(Cl)cc2)N=C1c1ccccc1O (stereo not drawn)
*A* false (0)

*Q* Hi team, for CCCCCCCCCCCCNC(=N)N1CC(C)C(c2cccc(Cl)c2OC)=N1 (stereo not drawn) , is the recorded inhibition at 0.001 µM at or above 20%?
*A* false (0)

*Q* I'd appreciate it if you could say whether COc1ccc(CNC(=N)N2CC(C)C(c3ccccc3O)=N2)cc1OC (stereo not drawn) has inhibition at 0.001 µM at least equal to 20%.
*A* false (0)

*Q* Check the entry C[C@@H]1CN(C(=N)N)N=C1c1ccccc1O (single isomer, unassigned) : does inhibition at 0.001 µM equal or exceed 20%?
*A* false (0)

*Q* Is inhibition at 0.001 µM at least 20%? Consider CC1CN(C(=N)Nc2ccccc2)N=C1c1cccc(Cl)c1O (stereo not drawn)
*A* true (1)

*Q* Identify whether the reported inhibition at 0.001 µM of the following compound is 20% or greater: CCCCNC(=N)N1CC(C)C(c2cccc(Cl)c2O)=N1 (stereo not drawn)
*A* true (1)

*Q* Entry CC1CN(C(=N)NCc2ccc(Cl)cc2Cl)N=C1c1ccccc1O (stereo not drawn) : is its inhibition at 0.001 µM no less than 20%?
*A* true (1)

*Q* For this compound, is measured inhibition at 0.001 µM 20% or higher? COc1c(Cl)cccc1C1=NN(C(=N)NC#N)CC1C (stereo not drawn)
*A* false (0)

*Q* Reported inhibition at 0.001 µM at or above 20%? CC1CN(C(=N)NCC(F)(F)F)N=C1c1ccccc1O (stereo not drawn)
*A* false (0)
